Molecular target: full-length human PIKFYVE (Homo sapiens (Human), UniProt Q9Y2I7, L932S/Q1183K/Q995L/S1033A/S696N/T998S)
Sequence (Q9Y2I7 whole entry S696N/L932S/Q995L/T998S/S1033A/Q1183K): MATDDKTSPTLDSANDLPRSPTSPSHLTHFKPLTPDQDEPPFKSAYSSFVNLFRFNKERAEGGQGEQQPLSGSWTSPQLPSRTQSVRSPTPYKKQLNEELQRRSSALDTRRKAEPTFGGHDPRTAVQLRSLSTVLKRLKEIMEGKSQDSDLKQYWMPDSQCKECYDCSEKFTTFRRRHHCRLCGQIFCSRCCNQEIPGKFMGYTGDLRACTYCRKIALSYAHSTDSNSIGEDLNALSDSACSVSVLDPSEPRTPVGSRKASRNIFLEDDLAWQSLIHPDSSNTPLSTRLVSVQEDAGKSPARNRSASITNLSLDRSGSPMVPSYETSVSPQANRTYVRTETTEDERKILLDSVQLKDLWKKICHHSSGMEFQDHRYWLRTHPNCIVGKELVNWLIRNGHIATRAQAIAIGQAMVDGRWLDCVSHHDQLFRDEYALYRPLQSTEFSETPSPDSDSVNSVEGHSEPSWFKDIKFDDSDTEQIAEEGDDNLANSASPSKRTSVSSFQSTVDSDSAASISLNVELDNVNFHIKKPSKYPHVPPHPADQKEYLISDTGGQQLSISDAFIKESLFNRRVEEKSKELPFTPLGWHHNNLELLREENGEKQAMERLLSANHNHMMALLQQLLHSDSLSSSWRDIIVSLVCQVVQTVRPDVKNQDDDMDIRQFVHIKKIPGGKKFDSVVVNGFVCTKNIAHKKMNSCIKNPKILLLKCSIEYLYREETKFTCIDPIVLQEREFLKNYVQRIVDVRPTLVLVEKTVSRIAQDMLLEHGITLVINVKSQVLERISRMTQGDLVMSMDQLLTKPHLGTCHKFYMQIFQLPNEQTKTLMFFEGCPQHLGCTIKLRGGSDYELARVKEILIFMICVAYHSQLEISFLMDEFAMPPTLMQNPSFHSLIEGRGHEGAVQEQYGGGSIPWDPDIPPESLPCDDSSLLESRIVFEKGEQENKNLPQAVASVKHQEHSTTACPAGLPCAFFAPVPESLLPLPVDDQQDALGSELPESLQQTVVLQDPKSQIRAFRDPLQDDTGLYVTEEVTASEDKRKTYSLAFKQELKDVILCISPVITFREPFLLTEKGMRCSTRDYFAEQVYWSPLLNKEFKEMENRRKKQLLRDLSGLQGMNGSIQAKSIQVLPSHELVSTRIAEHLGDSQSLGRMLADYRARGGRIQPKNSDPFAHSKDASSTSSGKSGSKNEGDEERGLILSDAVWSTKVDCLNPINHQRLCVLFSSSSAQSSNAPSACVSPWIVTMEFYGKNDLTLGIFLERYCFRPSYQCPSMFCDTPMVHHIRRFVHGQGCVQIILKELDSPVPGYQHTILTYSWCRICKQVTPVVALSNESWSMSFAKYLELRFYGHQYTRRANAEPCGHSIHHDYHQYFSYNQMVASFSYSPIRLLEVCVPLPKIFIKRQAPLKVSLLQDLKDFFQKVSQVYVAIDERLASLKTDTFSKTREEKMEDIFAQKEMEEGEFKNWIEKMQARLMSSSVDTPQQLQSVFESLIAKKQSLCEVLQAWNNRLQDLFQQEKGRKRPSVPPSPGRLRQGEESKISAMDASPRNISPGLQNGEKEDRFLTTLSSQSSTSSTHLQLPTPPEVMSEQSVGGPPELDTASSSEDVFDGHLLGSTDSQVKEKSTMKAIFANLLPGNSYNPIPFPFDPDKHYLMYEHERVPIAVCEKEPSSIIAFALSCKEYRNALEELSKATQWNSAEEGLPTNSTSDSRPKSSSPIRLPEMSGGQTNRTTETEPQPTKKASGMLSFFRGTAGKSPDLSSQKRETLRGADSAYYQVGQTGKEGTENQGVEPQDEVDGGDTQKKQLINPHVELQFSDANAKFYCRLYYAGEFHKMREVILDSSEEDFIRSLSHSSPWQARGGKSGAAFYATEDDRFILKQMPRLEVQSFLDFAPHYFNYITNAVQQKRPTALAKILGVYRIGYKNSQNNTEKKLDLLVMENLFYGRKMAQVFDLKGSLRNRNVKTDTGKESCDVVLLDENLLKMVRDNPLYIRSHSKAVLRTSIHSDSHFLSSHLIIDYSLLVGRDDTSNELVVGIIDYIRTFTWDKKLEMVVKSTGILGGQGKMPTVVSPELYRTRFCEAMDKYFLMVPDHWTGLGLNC
Assay: PIKfyve biochemical assay (ADP-Glo Kinase assay, Carna Biosciences)
Settings: ADP-Glo, GST-PIKFYVE, 10 μM to 3 nM; read-out: hPIKfyve IC50
Entries and their IC50

Observe how each entry below is paired with its result.
COMPOUND	IC50
CC1CC(c2cccc(-c3nc(N4CCOCC4)c4nc(-c5ccncc5)n(C)c4n3)n2)CCN1 (centres unmarked)	100 to 1000 nM
c1ccc(-c2nc(-c3nc(N4CCOCC4)c4nc(-c5ccncc5)[nH]c4n3)no2)cc1	10 to 100 nM
c1cc(-c2nc3c(N4CCOCC4)nc(-n4ccc(C5CCOCC5)n4)nc3[nH]2)ccn1	10 to 100 nM
FC(F)n1c(-c2ccncc2)nc2c(N3CCOCC3)nc(-c3ccnc(-c4ccccc4)n3)nc21	1000 to 10000 nM
Cn1c(C2CNC2)nc2c(N3CCOCC3)nc(-n3ccc(-c4ccccc4)n3)nc21	10 to 100 nM
Cn1c(-c2ccncc2)nc2c(N3CCOCC3)nc(N3CCC(F)(F)C3)nc21	10 to 100 nM
Cc1cccc(/C=N/Nc2nc(N3CCOCC3)c3nc(-c4ccncc4)sc3n2)c1	< 10 nM

Ask | Item `CN1CCC(c2nc3c(N4CCOCC4)nc(-n4ccc(-c5ccccc5)n4)nc3n2C)CC1` has what recorded IC50?
Reply | 100 to 1000 nM
